- Test system: A. baumannii
- Assay Info: Antibacterial activity against reference strains: A. baumannii
- Assay type: cell-based
- Condition Context: strain AG225
Quantity Kind: Antibacterial activity (MIC) A. baumannii AG225 (µg/mL)
Report as a plain number; the unit µg/mL is understood.

[in] Notebook: pull reported Antibacterial activity (MIC) A. baumannii AG225 for A. baumannii, entry CCC[C@H]1[C@H](O)[C@@H](N)[C@@H](O[C@H]2[C@H](O[C@@H]3O[C@H](CO)[C@@H](O[C@H]4O[C@@H](CN)[C@@H](O)[C@H](O)[C@H]4N)[C@H]3O)[C@@H](O)[C@H](N)C[C@@H]2N)O[C@@H]1CO [Compound 5, 4’-deoxy-4’-propylparomomycin]
[out] 2

[in] Likewise for NC[C@@H]1O[C@H](O[C@H]2[C@@H](O)[C@H](O[C@@H]3[C@@H](O)[C@H](N)C[C@H](N)[C@H]3O[C@H]3O[C@H](CO)C[C@H](O)[C@H]3N)O[C@@H]2CO)[C@H](N)[C@@H](O)[C@@H]1O [Compound 2, 4’-deoxy paromomycin] ?
[out] 8

[in] Also check NCC1OC(OC2C(CO)OC(OC3C(O)C(N)CC(N)C3OC3OC(CO)C(CC(O)CO)C(O)C3N)C2O)C(N)C(O)C1O (stereo not drawn) [Compound 37]
[out] 8

[in] Same again, this time with CCSC1C(CO)OC(OC2C(N)CC(N)C(O)C2OC2OC(CO)C(OC3OC(CN)C(O)C(O)C3N)C2O)C(N)C1O (stereo not drawn) [Compound 4, 4’-deoxy-4’-ethylthioparomomycin]
[out] 4
